# Target Or System: T1, recombinant Plasmodium falciparum circumsporozoite protein (CSP) (Plasmodium falciparum, UniProt Q7K740 21-375)
# T1 construct: also called recombinant CSP
# T1 sequence (Q7K740 21-375 limits assumed): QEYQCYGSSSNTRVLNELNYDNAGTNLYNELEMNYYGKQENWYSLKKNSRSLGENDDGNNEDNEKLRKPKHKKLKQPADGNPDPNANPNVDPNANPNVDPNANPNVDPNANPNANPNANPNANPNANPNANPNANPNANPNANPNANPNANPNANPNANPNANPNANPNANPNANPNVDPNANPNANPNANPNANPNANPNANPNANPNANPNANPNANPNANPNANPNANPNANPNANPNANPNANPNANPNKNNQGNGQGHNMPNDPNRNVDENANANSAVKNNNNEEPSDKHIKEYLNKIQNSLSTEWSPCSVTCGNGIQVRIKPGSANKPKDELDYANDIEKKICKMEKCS
# Method: SPR, recombinant CSP
Would you mind labelling by koff? At or over 0.001 s⁻¹ is MET, under is NOT MET.

Hi, just wondering whether AB-000356 LS (antibody, V domains shown) VH: QVQLVESGGGVVQPGRSLRLSCAASGFTFRNFGMHWVRQTPGKGLEWVAVIWHDGSNKFYADSVEGRFTISRDNSKNMIYLQMNSLRVEDTAIYYCARDSLFYDHDNSGYYGYWGQGTLVTVSS VL: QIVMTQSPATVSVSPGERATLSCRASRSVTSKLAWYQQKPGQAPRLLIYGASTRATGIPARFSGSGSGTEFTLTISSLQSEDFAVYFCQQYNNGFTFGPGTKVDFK shows koff of 0.001 s⁻¹ or higher.
MET

Further, for AB-000325 (antibody, V domains shown) VH: QVQLVESGGGVVQPGRSLRLSCAASRFPFKNYGMHWVRQAPGKGLEWVALIWFDGSNKFYVDSVEGRFTISRDNSNNMLYLEMNSLRADDTAVYYCARAGRYDDSGYLDYWGQGTLVTVSS VL: EIVMTQSPATLSVSPGERATLSCRASQSVGSKLAWYQHKPGQAPRLLIYGASTRATGIPARFSGSGSGTEFTLTVSSLQSEDFAVYYCQQYNHWYTFGQGTKLEIK ?
MET

Further, for AB-000376 (antibody, V domains shown) VH: QVQLVESGGGVVQPGRSLRLSCTASGFTFSNYGMHWVRQAPGRALEWVAIIWHDGSNKYYADSVKGRFTISRDNSKNTLYLQMNNVRVEDTAVYHCAKVGGFGELYEAFDFWGQGTLVTVSS VL: DIQMTQSPSTLSASVGDRVTITCRASHSISNWLAWYQQKPGKAPRLLIYKASSLNSGVPSRFSGSASGTEFTLTISSLQPDDFATYFCQQYNAYWTFGQGTKVEIK ?
NOT MET

Further, for AB001533 (antibody, V domains shown) VH: QVQLVESGGGVVQPGRSLRLSCAASGFTFNSYGMHWVRQAPGKGLEWVALISFDGTNKFYADSVKGRFTISRDNSKNTLYLQMNSLRAEDTALYHCATDSLFYYDFHLFDYWGQGTLVTVSS VL: DIVLTQTPLSSPVTLGQPASISCRSSQSLVYSDGNTYLNWLQQRPGQPPRLLIYKISNRFSGVPDRFSGSGAGTDFTLKISRVEAEDVGVYYCMQATQLYTFGQGTKLEIK ?
NOT MET

Further, for AB-001545 (antibody, V domains shown) VH: QVQLVESGGGVVQPGRSLRLSCAASGFTFSSYGMHWVRQAPGKGLEWVAVIWYDGSNKYYADSVKGRFTISRDNSKNTLYLQMNSLRAEDTAVYYCARDLDYSNHNWFDPWGQGTLVTVSS VL: EIVLTQSPATLSLSPGERATLSCRASQSVSSYLAWYQQKPGQAPRLLIYDASNRATGIPARFSGSGSGTDFTLTISSLEPEDFAVYYCQQRSNWFTFGQGTRLEIK ?
NOT MET

Further, for AB-000373 (antibody, V domains shown) VH: QVLLVESGGGVVQPGGSLRLSCTASGFTFKNYGMHWVRQAPGKGLEWVAVIWFDGSNEFYADSVEGRFTISRDNSKNTLYLQTNSLRAEDTAVYYCARSYTSSWLGFDFWGQGTLVTVSS VL: DAVMTQTPLSLSVTPGQPASISCKSGQSLLHSDGKTYLYWYLQKPGQSPQLLIYEVSSRFSGVPDRFSGSGSGTDFTLKISRVEAEDVGVYYCMRGIHPRTFGQGTKVEIK ?
MET
